# Tested on: HCT-116 colon
# Test Protocol: NCI tumour cell line growth inhibition, 48 h
Exercise: state measured TGI for each of the compounds provided.
The reply should be a number in µM, with the unit left off.

// query // TGI lookup, key: Fc1ccc(C(OCCN2CCC3CCC(C2)N3C/C=C/c2ccco2)c2ccc(F)cc2)cc1 (stereo unspecified)
// result 18.5

// query // TGI lookup, key: `[N-]=[N+]=CC(=O)c1ccccc1C#CCCc1ccccc1`
// result 48.9

// query // TGI lookup, key: CC(C)CCCC(C)[C@H]1CCC2[C@@H]3CCC4Nc5nocc5C[C@]4(C)C3CC[C@@]21C (stereo partly specified)
// result 32.4

// query // TGI lookup, key: `Cc1nn(-c2ccccc2)c(C)c1/C=N/N=C1\SCC(=O)N1c1ccccc1`
// result 36.5

// query // TGI lookup, key: `O=c1cccccc1[O-].O=c1cccccc1[O-].[O]=[U+2]=[O]`
// result 98.4

// query // TGI lookup, key: `O=S(=O)(O)C(=Nc1cccc(Cc2ccccc2)c1)Nc1cccc(Cc2ccccc2)c1`
// result 28.2
